So I've got a bunch of binders here, and I need their IC50 values.
# tested.system: T1, KDR-IgG (UniProt P35968 20-764)
# T1 construct: Construct only cited from Park et al. 1994; also called KDR receptor-IgG chimera; soluble KDR; not shown: IgG part of the chimera (captured by anti-human IgG Fc)
# T1 sequence (P35968 20-764): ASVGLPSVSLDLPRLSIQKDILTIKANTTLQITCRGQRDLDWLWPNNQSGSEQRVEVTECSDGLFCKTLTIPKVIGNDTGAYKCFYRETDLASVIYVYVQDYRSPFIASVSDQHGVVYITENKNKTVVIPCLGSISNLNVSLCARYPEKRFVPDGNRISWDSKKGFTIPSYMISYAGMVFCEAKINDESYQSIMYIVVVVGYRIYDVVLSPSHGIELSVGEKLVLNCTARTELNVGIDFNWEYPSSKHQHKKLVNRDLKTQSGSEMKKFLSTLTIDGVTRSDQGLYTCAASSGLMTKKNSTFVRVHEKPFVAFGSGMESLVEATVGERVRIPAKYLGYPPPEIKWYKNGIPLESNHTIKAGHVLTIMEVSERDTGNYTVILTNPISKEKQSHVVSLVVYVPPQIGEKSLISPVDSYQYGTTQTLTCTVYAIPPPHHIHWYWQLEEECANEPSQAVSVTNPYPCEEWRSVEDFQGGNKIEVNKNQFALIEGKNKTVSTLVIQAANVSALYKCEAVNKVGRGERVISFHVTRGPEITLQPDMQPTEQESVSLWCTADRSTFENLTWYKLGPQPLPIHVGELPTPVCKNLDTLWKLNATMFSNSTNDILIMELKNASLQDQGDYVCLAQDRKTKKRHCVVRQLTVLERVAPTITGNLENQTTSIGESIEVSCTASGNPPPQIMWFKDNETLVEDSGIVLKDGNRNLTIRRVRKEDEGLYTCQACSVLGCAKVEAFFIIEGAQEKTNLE
# test: competition with 125I-VEGF165 for KDR-IgG, radioligand plate assay
Answers are plain numbers, in ng/mL.

For orientation, consider the following solved cases.
binder	unit.descriptor	IC50
E64A VEGF (ligand, VEGF165 mutant from 293 cells, conditioned medium) APMAEGGGQNHHEVVKFMDVYQRSYCHPIETLVDIFQEYPDEIEYIFKPSCVPLMRCGGCCNDAGLECVPTEESNITMQIMRIKPHQGQHIGEMSFLQHNKCECRPKKDRARQENPCGPCSERRKHLFVQDPQTCKCSCKNTDSRCKARQLELNERTCRCDKPRR	ng/mL	8
R23A VEGF (ligand, VEGF165 mutant from 293 cells, conditioned medium) APMAEGGGQNHHEVVKFMDVYQASYCHPIETLVDIFQEYPDEIEYIFKPSCVPLMRCGGCCNDEGLECVPTEESNITMQIMRIKPHQGQHIGEMSFLQHNKCECRPKKDRARQENPCGPCSERRKHLFVQDPQTCKCSCKNTDSRCKARQLELNERTCRCDKPRR	ng/mL	2

Now for a further binder.
// query What does the record list as IC50 for H86A VEGF (ligand, VEGF165 mutant from 293 cells, conditioned medium) APMAEGGGQNHHEVVKFMDVYQRSYCHPIETLVDIFQEYPDEIEYIFKPSCVPLMRCGGCCNDEGLECVPTEESNITMQIMRIKPAQGQHIGEMSFLQHNKCECRPKKDRARQENPCGPCSERRKHLFVQDPQTCKCSCKNTDSRCKARQLELNERTCRCDKPRR ?
// result 2
